Provenance of the data: BigSolDB 2.1

# test_context: in isopropyl acetate, 313.3 K
measurement_kind: solubility (mole fraction)
# output: bare number, no unit

# solubility (mole fraction) (compound: CS(N)(=O)=O ) is 0.0219

###

# test_context: in methanol, 322.2 K
measurement_kind: solubility (mole fraction)
Note: the reply should be a number with no unit written.

solubility (mole fraction) recorded for this compound, CS(N)(=O)=O , is 0.33

###

# test_context: in ethyl acetate, 308.24 K
measurement_kind: solubility (mole fraction)
No unit in the answer, please; the number alone is enough.

Recorded result, CS(N)(=O)=O , solubility (mole fraction): 0.0507

###

# test_context: in n-propanol, 313.18 K
measurement_kind: solubility (mole fraction)

Form field solubility (mole fraction), entry CS(N)(=O)=O : 0.0471
